Numbers sourced from patent US20240327535A1.

biological target: T1, extracellular domain of rhesus monkey BCMA (rhesus monkey, UniProt F7FFA0 1-53); experiment: Octet BLI; Fab 200 nM
T1 construct: extracellular domain; also called RhBCMA
T1 sequence (F7FFA0 entry or part of it): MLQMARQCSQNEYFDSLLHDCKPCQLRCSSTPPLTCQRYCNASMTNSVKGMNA
pKd: −log10 of the molar value.
# Lookup of reported pKd keyed by entry
measure.name: pKd

>>> reported("AB200-(2Vk31)_R2-VH-v17 (Fab, V domains shown) VH: QVQLVQSGAEVKKPGSSVKVSCKASGGSFSNYWIHWVRQAPGQGLEWMGATYRSQSDTYYAQKFKSRVTITADKSTSTAYMELSSLRSEDTAVYYCARGAIFHGYDVIDNWGQGTLVTVSS VL: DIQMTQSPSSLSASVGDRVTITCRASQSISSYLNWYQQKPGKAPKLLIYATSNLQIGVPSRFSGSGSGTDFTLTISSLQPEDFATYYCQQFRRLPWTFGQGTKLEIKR")
7.77
>>> reported("AB200-(2Vk31)_R2-CDR1-hs-v3 (Fab, V domains shown) VH: QVQLVQSGAEVKKPGSSVKVSCKASGGTFSSYAISWVRQAPGQGLEWMGATYRSQSDTYYNQKYKSRVTITADKSTSTAYMELSSLRSEDTAVYYCARGAVYHGYDVIDNWGQGTLVTVSS VL: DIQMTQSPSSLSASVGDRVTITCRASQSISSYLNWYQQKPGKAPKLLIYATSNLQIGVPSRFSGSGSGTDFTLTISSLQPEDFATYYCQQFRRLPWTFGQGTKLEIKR")
6.27
>>> reported("AB200-(2Vk31)_R2-VH-v66 (Fab, V domains shown) VH: QVQLVQSGAEVKKPGSSVKVSCKASGGTFSNYWIHWVRQAPGQGLEWMGATYRIHSTTYYNQKYKSRVTITADKSTSTAYMELSSLRSEDTAVYYCARGAIFHGYDVIDNWGQGTLVTVSS VL: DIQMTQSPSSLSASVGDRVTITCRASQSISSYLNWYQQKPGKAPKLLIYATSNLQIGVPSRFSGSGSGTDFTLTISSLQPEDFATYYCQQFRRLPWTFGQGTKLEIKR")
7.68
>>> reported("AB200-(2Vk31)_R2-VH-v57 (Fab, V domains shown) VH: QVQLVQSGAEVKKPGSSVKVSCKASGGTFSNYWIHWVRQAPGQGLEWMGGTYRIHSTTYYNQKFKSRVTITADESTSTAYMELSSLRSEDTAVYYCARGAVYHGYDVIDNWGQGTLVTVSS VL: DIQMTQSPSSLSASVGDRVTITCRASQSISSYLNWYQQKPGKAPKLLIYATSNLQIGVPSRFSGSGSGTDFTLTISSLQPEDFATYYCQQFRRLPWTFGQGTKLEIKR")
7.68
>>> reported("AB200-(2Vk31)_R2-VH-v27 (Fab, V domains shown, also called AB200_VH2-27_VK2-31) VH: QVQLVQSGAEVKKPGSSVKVSCKASGGTFSNYWIHWVRQAPGQGLEWMGATYRSQSTTYYNQKFKSRVTITADKSTSTAYMELSSLRSEDTAVYYCARGAVYHGYDVIDNWGQGTLVTVSS VL: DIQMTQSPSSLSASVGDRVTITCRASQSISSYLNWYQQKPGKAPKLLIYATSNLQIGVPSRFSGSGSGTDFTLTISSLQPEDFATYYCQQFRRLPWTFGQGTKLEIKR")
7.82
>>> reported("AB200-(2Vk31)_R2-VH-v34 (Fab, V domains shown) VH: QVQLVQSGAEVKKPGSSVKVSCKASGGTFSNYWIHWVRQAPGQGLEWMGATYRSQSDTYYAQKFKSRVTITADKSTSTAYMELSSLRSEDTAVYYCARGAIYHGYDVIENWGQGTLVTVSS VL: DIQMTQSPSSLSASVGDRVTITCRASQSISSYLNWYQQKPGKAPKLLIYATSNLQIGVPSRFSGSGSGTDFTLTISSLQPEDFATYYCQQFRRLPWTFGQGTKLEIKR")
7.74
